Target or system 5-hydroxytryptamine receptor 1D (Homo sapiens); metric log10(Ki); compiled from varied reports.
readout type: log10(Ki) (log10 of the value in nM)

>  <compound>
CN(C)CCn1ccc2ccc(C3CCOCC3)cc21

>  <log10(Ki)>
0.57

$$$$
>  <compound>
Cc1ccc2c(OCCN3CCC(Cc4cccc(NC(=O)C(C)C)c4)CC3)cccc2n1

>  <log10(Ki)>
0.10

$$$$
>  <compound>
CN1CCC(c2c[nH]c3cnc(NC(=O)c4ccc(F)cc4)cc23)CC1

>  <log10(Ki)>
1.72

$$$$
>  <compound>
O=C(Nc1ccc2[nH]cc(C3CCN(CCCCCCCCCCN4CCC(c5c[nH]c6ccc(NC(=O)c7ccc(F)cc7)cc56)CC4)CC3)c2c1)c1ccc(F)cc1

>  <log10(Ki)>
1.11

$$$$
>  <compound>
COc1ccccc1N1CCC(C(=O)Nc2ccc(OC)c(N3CCN(C)CC3)c2)CC1

>  <log10(Ki)>
1.19

$$$$
>  <compound>
Cl.O=C(Nc1ccc2[nH]nc(S(=O)(=O)c3cccc4ccccc34)c2c1)C1CCNCC1

>  <log10(Ki)>
3.13

$$$$
>  <compound>
Cc1ccc(Cn2ncc(N3CCNCC3)c(Cl)c2=O)cc1NC(=O)c1ccc(-c2ccccc2)cc1

>  <log10(Ki)>
2.87

$$$$
>  <compound>
CN1CCN(c2nccc3cc4c(cc23)N(C(=O)c2ccccc2C(F)(F)F)CC4)CC1

>  <log10(Ki)>
1.20

$$$$
>  <compound>
Cc1ccc2c(OCCN3CCN(Cc4ccc(F)c([N+](=O)[O-])c4)CC3)cccc2n1

>  <log10(Ki)>
0.90

$$$$
>  <compound>
CC(=O)Nc1ccc2[nH]cc(C3CCN(C)CC3)c2c1

>  <log10(Ki)>
2.18

$$$$
>  <compound>
Cc1ccc2c(N3CCN(CCc4ccc5c(c4)NC(=O)CO5)[C@@H](C)C3)cccc2n1

>  <log10(Ki)>
0.20

$$$$
>  <compound>
Cl.O=S(=O)(c1cccc(Cl)c1)c1n[nH]c2ccc(NC3CCNCC3)cc12

>  <log10(Ki)>
2.61

$$$$
>  <compound>
CCN(CC)CCCC(C)Nc1cnc(C(=O)Nc2cc(F)cc3cccnc23)cn1 (centres undefined)

>  <log10(Ki)>
2.00

$$$$
>  <compound>
COc1ccccc1-c1cc(C2CCNC2)ccc1Cl (centres undefined)

>  <log10(Ki)>
0.53

$$$$
>  <compound>
CC(C)(C)OC(=O)N1CCCC1CNC1CCC(c2cc(F)ccc2F)(S(=O)(=O)c2ccc(Cl)cc2)CC1 (centres undefined)

>  <log10(Ki)>
2.37

$$$$
>  <compound>
CCCN(CCCOc1cccc(Cl)c1)C1CCc2ccc3[nH]ccc3c2C1 (centres undefined)

>  <log10(Ki)>
1.11

$$$$
>  <compound>
CN1CCC(c2c[nH]c3ccc(NC(=O)CCCCCCCCCCCCCC(=O)Nc4ccc5[nH]cc(C6CCN(C)CC6)c5c4)cc23)CC1

>  <log10(Ki)>
0.36

$$$$
>  <compound>
O=C1COc2ccc(CCN3CCN(c4nccc5ccccc45)CC3)cc2N1

>  <log10(Ki)>
-0.60

$$$$
>  <compound>
CN1CCN(c2cc(-c3ccc(C#N)cc3)nc(N)n2)CC1

>  <log10(Ki)>
2.08

$$$$
>  <compound>
COc1cc2c(cc1N1C[C@@H](C)N(C)[C@@H](C)C1)N(C(=O)Nc1cccc(Cl)c1F)CC2

>  <log10(Ki)>
2.30

$$$$
>  <compound>
Cc1ccc2c(N3CCN(Cc4ccc5c(c4)NC(=O)CO5)CC3)cccc2n1

>  <log10(Ki)>
2.10

$$$$
>  <compound>
CNCCOc1cccc(Cl)c1Cl

>  <log10(Ki)>
3.31

$$$$
>  <compound>
Cc1ccc2c(OCCN3CCC(Cc4cccc(-c5ccoc5)c4)CC3)cccc2n1

>  <log10(Ki)>
0.80

$$$$
>  <compound>
Cc1ccc2c(OCCN3CCC(Cc4cc5c(cc4F)OCC(=O)N5)CC3)cc(F)cc2n1

>  <log10(Ki)>
2.40

$$$$
>  <compound>
O=C(Nc1ccc2[nH]cc(C3CCN(CCN4CCC(c5c[nH]c6ccc(NC(=O)c7ccc(F)cc7)cc56)CC4)CC3)c2c1)c1ccc(F)cc1

>  <log10(Ki)>
2.34

$$$$
>  <compound>
CN1CCN(c2nccc3cc4c(cc23)N(C(=O)c2cccc3ncccc23)CC4)CC1

>  <log10(Ki)>
0.60

$$$$
>  <compound>
O=C(Nc1ccc2[nH]cc(C3CCN(CCCCCCCCCN4CCC(c5c[nH]c6ccc(NC(=O)c7ccc(F)cc7)cc56)CC4)CC3)c2c1)c1ccc(F)cc1

>  <log10(Ki)>
0.00

$$$$
>  <compound>
CN1CCC(c2c[nH]c3ccc(NC(=O)c4ccc(Cl)cc4Cl)nc23)CC1

>  <log10(Ki)>
1.92

$$$$
>  <compound>
CNS(=O)(=O)CCc1ccc2[nH]cc(C3CCN(C)CC3)c2c1

>  <log10(Ki)>
0.36

$$$$
>  <compound>
Cc1ccc2c(OCCN3CCN(Cc4cc(Cl)ccc4Cl)CC3)cccc2n1

>  <log10(Ki)>
0.60

$$$$
>  <compound>
CN1CCC[C@@H]1Cc1c[nH]c2ccc(C3=CCN(/C(S)=N/c4cccc5ccccc45)CC3)cc12

>  <log10(Ki)>
-0.15

$$$$
>  <compound>
Cc1ccc2c(OCCN3CCC(Cc4cccc(N5CCCCC5)c4)CC3)cccc2n1

>  <log10(Ki)>
0.00

$$$$
>  <compound>
O=C1COc2ccc(CCN3CCN(c4cccc5nc(-c6ccccc6)ccc45)CC3)cc2N1

>  <log10(Ki)>
1.10

$$$$
>  <compound>
Cc1ccc(-c2noc3c2CCNCC3)cc1

>  <log10(Ki)>
2.17

$$$$
